Test: In vivo biodistribution in mice
Parameters: species or system normal CD-1 male mice
Conditions: iv, 120 min post injection
PROPERTY_LABEL: Biodistribution: Spleen (% dose/g)
One number for each entry, in % dose/g.

Consider the worked cases shown below.
COMPOUND	DATA_VALUE
O=C([O-])CN(CCN(CC(=O)[O-])Cc1cc(CCC(=O)N[C@@H](CC(=O)O)C(=O)O)ccc1[O-])Cc1cc(CCC(=O)NC(P(=O)(O)O)P(=O)(O)O)ccc1[O-].[68Ga+3] [[^68Ga]1e]	0.06
O=C([O-])CN(CCN(CC(=O)[O-])Cc1cc(CCC(=O)NC(P(=O)(O)O)P(=O)(O)O)ccc1[O-])Cc1cc(CCC(=O)NCCNC(=O)CN2CCN(CC(=O)O)CCN(CC(=O)O)CCN(CC(=O)O)CC2)ccc1[O-].[68Ga+3] [[^68Ga]1h]	0.07
O=C([O-])CN(CCN(CC(=O)[O-])Cc1cc(CCC(=O)NC(P(=O)(O)O)P(=O)(O)O)ccc1[O-])Cc1cc(CCC(=O)NCCCNC(=O)CCc2ccc(O)c(CN(CCN(CC(=O)O)Cc3cc(CCC(=O)NC(P(=O)(O)O)P(=O)(O)O)ccc3O)CC(=O)O)c2)ccc1[O-].[68Ga+3] [[^68Ga]3]	15.7

Your task in this section: give Biodistribution: Spleen for each listed record.
1. O=C([O-])CN(CCN(CC(=O)[O-])Cc1cc(CCC(=O)N[C@@H](CCC(=O)O)C(=O)O)ccc1[O-])Cc1cc(CCC(=O)NC(P(=O)(O)O)P(=O)(O)O)ccc1[O-].[68Ga+3] [[^68Ga]1f]
2. O=C([O-])CN(CCN(CC(=O)[O-])Cc1cc(CCC(=O)NC(P(=O)(O)O)P(=O)(O)O)ccc1[O-])Cc1cc(CCC(=O)NC2C(O)OC(CO)C(O)C2O)ccc1[O-].[68Ga+3] (centres unmarked) [[^68Ga]1b]

Reply |
0.08
0.53

----------
Exercise: state measured bone to blood ratio for each of the compounds provided.
Experiment: In vivo biodistribution in mice
Parameters: species or system normal CD-1 male mice
Conditions: iv, 2 min
One number for each entry.

Consider the worked cases shown below.
COMPOUND	PROPERTY_LABEL	DATA_VALUE
O=C([O-])CN(CCN(CC(=O)[O-])Cc1cc(CCC(=O)NC(P(=O)(O)O)P(=O)(O)O)ccc1[O-])Cc1cc(CCC(=O)NCCCCCC(=O)NCCCC[C@H](NC(=O)N[C@@H](CCC(=O)O)C(=O)O)C(=O)O)ccc1[O-].[68Ga+3] [[^68Ga]1g]	bone to blood ratio	0.97
O=C([O-])CN(CCN(CC(=O)[O-])Cc1cc(CCC(=O)O)ccc1[O-])Cc1cc(CCC(=O)O)ccc1[O-].[68Ga+3] [[^68Ga]HBED-CC, reference compound]	bone to blood ratio	0.2
O=C([O-])CN(CCN(CC(=O)[O-])Cc1cc(CCC(=O)N[C@@H](CCC(=O)O)C(=O)O)ccc1[O-])Cc1cc(CCC(=O)NC(P(=O)(O)O)P(=O)(O)O)ccc1[O-].[68Ga+3] [[^68Ga]1f]	bone to blood ratio	1
C[C@H](NC(=O)CCc1ccc([O-])c(CN(CCN(CC(=O)[O-])Cc2cc(CCC(=O)NC(P(=O)(O)O)P(=O)(O)O)ccc2[O-])CC(=O)[O-])c1)C(=O)O.[68Ga+3] [[^68Ga]1d]	bone to blood ratio	1.1

Ask | Hello, please tell me recorded bone to blood ratio for this one: O=C([O-])CN(CCN(CC(=O)[O-])Cc1cc(CCC(=O)NC(P(=O)(O)O)P(=O)(O)O)ccc1[O-])Cc1cc(CCC(=O)NC2C(O)OC(CO)C(O)C2O)ccc1[O-].[68Ga+3] (centres unmarked) [[^68Ga]1b]
Reply | 0.9

Recorded values, source patent US10253052B2.
